Origin of measurements: ChEMBL document CHEMBL2150921

# Test system: Human immunodeficiency virus 1
# experiment-summary: Antiviral activity against HIV1 A17 harbouring RT K103N/Y181C mutant infected in human C8166 cells assessed as protection against virus-induced cytopathic effect after 3 days by syncytium reduction assay
# Type: functional, organism-based
# test-conditions: Human immunodeficiency virus 1, A17, C8166, 72 h
Each entry below carries its reported log10 of EC50.
Response schema: value (number) is log10 of EC50 in units of nM.

Q. For the compound shown here, Cc1cc(S(N)(=O)=O)ccc1NC(=O)COc1ccc(Cl)cc1NC(=O)c1ccc(Cl)cc1Cl , give the reported log10 of EC50.
A. 2.52

Q. Query: log10 of EC50; subject: Cc1ccc(C)c(C(=O)Nc2cc(Cl)ccc2OCC(=O)Nc2ccc(S(N)(=O)=O)cc2C)c1
A. 2.15

Q. log10 of EC50 lookup needed for Cc1cc(S(N)(=O)=O)ccc1NC(=O)COc1ccc(Cl)cc1NC(=O)c1cccc(Cl)c1 , thanks.
A. 3.17

Q. So what's the measured log10 of EC50 for this one? Cc1cccc(C(=O)Nc2cc(Cl)ccc2OCC(=O)Nc2ccc(S(N)(=O)=O)cc2C)c1
A. 2.66

Q. Need log10 of EC50, item Cc1cc(S(N)(=O)=O)ccc1NC(=O)COc1ccc(Cl)cc1NC(=O)c1cccc([N+](=O)[O-])c1
A. 2.66

Q. Can you look up the measured log10 of EC50 of Cc1cc(S(N)(=O)=O)ccc1NC(=O)COc1ccc(Cl)cc1NC(=O)c1ccccc1 for me?
A. 3.20

Q. Query: log10 of EC50; subject: COc1ccc(C(=O)Nc2cc(Cl)ccc2OCC(=O)Nc2ccc(S(N)(=O)=O)cc2C)cc1
A. 4.26

Q. Bench note: what log10 of EC50 did Cc1cc(S(N)(=O)=O)ccc1NC(=O)COc1ccc(Cl)cc1NC(=O)c1ccc(Cl)c(Cl)c1 show?
A. 3.06

Q. Look up log10 of EC50: Cc1cc(C)cc(C(=O)Nc2cc(Cl)ccc2OCC(=O)Nc2ccc(S(N)(=O)=O)cc2C)c1
A. 2.52

----------
# selectivity ratio per record follows
# experiment-summary: Therapeutic index, ratio of CC50 for human C8166 cells to EC50 for wild type HIV1 3B infected in human C8166 cells
# Format: cell-based
# test-conditions: C8166 cells infected with wild type HIV1 3B, read-out: Ratio CC50/EC50
API note: the answer field is a bare number with no unit suffix.

Q. Return reported selectivity ratio; argument: Cc1ccc(C(=O)Nc2cc(Cl)ccc2OCC(=O)Nc2ccc(S(N)(=O)=O)cc2C)c(C)c1
A. 85300

Q. What value of selectivity ratio has been reported for the following molecule? Cc1cc(S(N)(=O)=O)ccc1NC(=O)COc1ccc(Cl)cc1NC(=O)c1ccccc1C
A. 3750

Q. Entry Cc1cc(S(N)(=O)=O)ccc1NC(=O)COc1ccc(Cl)cc1NC(=O)c1ccccc1[N+](=O)[O-] has what selectivity ratio?
A. 185000

----------
# experiment-summary: Therapeutic index, ratio of CC50 for human C8166 cells to EC50 for HIV1 A17 harbouring RT K103N/Y181C mutant infected in human C8166 cells
# Assay type: cell-based
# test-conditions: read-out: Ratio CC50/EC50
Class field: derived from selectivity ratio; ranges band 1: < 100; band 2: ≥ 100 and < 500; band 3: ≥ 500

The following compounds have reported results that may help.
| smiles-data | discrete-label |
| --- | --- |
| Cc1cc(S(N)(=O)=O)ccc1NC(=O)COc1ccc(Cl)cc1NC(=O)c1cccc(C(F)(F)F)c1 | band 1 |
| Cc1cc(S(N)(=O)=O)ccc1NC(=O)COc1ccc(Cl)cc1NC(=O)c1cccc(F)c1 | band 2 |
| Cc1cc(S(N)(=O)=O)ccc1NC(=O)COc1ccc(Cl)cc1NC(=O)c1ccccc1 | band 2 |
| Cc1cc(C)cc(C(=O)Nc2cc(Cl)ccc2OCC(=O)Nc2ccc(S(N)(=O)=O)cc2C)c1 | band 2 |
| Cc1cn([C@H]2C[C@H](N=[N+]=[N-])[C@@H](CO)O2)c(=O)[nH]c1=O | band 3 |
| Cc1ccc(C(=O)Nc2cc(Cl)ccc2OCC(=O)Nc2ccc(S(N)(=O)=O)cc2C)cc1 | band 1 |
| Cc1ccc(C)c(C(=O)Nc2cc(Cl)ccc2OCC(=O)Nc2ccc(S(N)(=O)=O)cc2C)c1 | band 3 |

Q. Kindly state the category for this compound: Cc1ccc(C(=O)Nc2cc(Cl)ccc2OCC(=O)Nc2ccc(S(N)(=O)=O)cc2C)c(C)c1
A. band 3

----------
# target-of-assay: Human immunodeficiency virus type 1 reverse transcriptase (Human immunodeficiency virus 1, UniProt Q72547)
experimental-readout: IC50 (nM)
Give the value in nM but do not write nM after it.

Q. Given Cc1cc(S(N)(=O)=O)ccc1NC(=O)COc1ccc(Cl)cc1C(=O)c1cc(Cl)cc(C#N)c1 , state its recorded IC50.
A. 2.69

Q. Item under review: Cc1ccc(C(=O)Nc2cc(Cl)ccc2OCC(=O)Nc2ccc(S(N)(=O)=O)cc2C)cc1C . Reported IC50?
A. 1.14

Q. Fill blank: measured IC50 of the compound Cc1cc(S(N)(=O)=O)ccc1NC(=O)COc1ccc(Cl)cc1NC(=O)c1cc(Cl)cc(C#N)c1 is ____.
A. 2.05

----------
CC50 values, listed per item
# System: C8166
# experiment-summary: Cytotoxicity against human C8166 cells assessed as decrease in cell viability by MTT assay
# Type: functional
Provide the reading as a plain figure in µM.

Solved cases (5 shown):
| smiles-data | CC50 (µM) |
| --- | --- |
| Cc1cc(S(N)(=O)=O)ccc1NC(=O)COc1ccc(Cl)cc1NC(=O)c1ccccc1 | 207 |
| Cc1cc(S(N)(=O)=O)ccc1NC(=O)COc1ccc(Cl)cc1NC(=O)c1ccc(Cl)c(Cl)c1 | 158 |
| Cc1cc(S(N)(=O)=O)ccc1NC(=O)COc1ccc(Cl)cc1NC(=O)c1cccc([N+](=O)[O-])c1 | 58.8 |
| Cc1cc(S(N)(=O)=O)ccc1NC(=O)COc1ccc(Cl)cc1NC(=O)/C=C/c1ccccc1 | 163 |
| Cc1cc(S(N)(=O)=O)ccc1NC(=O)COc1ccc(Cl)cc1NC(=O)c1ccc2ccccc2c1 | 37.6 |

Q. Dear colleague, I am looking for the recorded CC50 of the following molecule: Cc1cc(S(N)(=O)=O)ccc1NC(=O)COc1ccc(Cl)cc1NC(=O)c1cc(Br)cc(Br)c1
A. 89.7

Q. Name the recorded CC50 for Cc1cc(S(N)(=O)=O)ccc1NC(=O)COc1ccc(Cl)cc1NC(=O)c1cccc(C(F)(F)F)c1 .
A. 124

Q. Quick one: CC50 of Cc1ccc(C(=O)Nc2cc(Cl)ccc2OCC(=O)Nc2ccc(S(N)(=O)=O)cc2C)cc1C ?
A. 84.1

Q. Please give the measured CC50 for this molecule: Cc1cc(S(N)(=O)=O)ccc1NC(=O)COc1ccc(Cl)cc1NC(=O)c1ccc(Cl)cc1Cl
A. 61.1

Q. Requested field: CC50. Item: COc1ccc(C(=O)Nc2cc(Cl)ccc2OCC(=O)Nc2ccc(S(N)(=O)=O)cc2C)cc1
A. 69.5

----------
# System: Human immunodeficiency virus 1
# experiment-summary: Antiviral activity against HIV1 A17 harbouring RT K103N/Y181C mutant infected in human C8166 cells assessed as protection against virus-induced cytopathic effect after 3 days by syncytium reduction assay
# Type: functional, organism-based
# test-conditions: Human immunodeficiency virus 1, A17, C8166, 72 h
pEC50: −log10 of the molar value.
pEC50 of 6 or higher: met. Under 6: not met.

Q. Given the entry Cc1cc(S(N)(=O)=O)ccc1NC(=O)COc1ccc(Cl)cc1NC(=O)c1cc(Cl)cc(Br)c1 , answer whether its pEC50 meets or surpasses 6.
A. not met

Q. Say whether Cc1cc(S(N)(=O)=O)ccc1NC(=O)COc1ccc(Cl)cc1C(=O)c1cc(Cl)cc(C#N)c1 shows pEC50 of 6 or more.
A. met

Q. Kindly determine if pEC50 recorded for Cc1cc(S(N)(=O)=O)ccc1NC(=O)COc1ccc(Cl)cc1NC(=O)c1cc(Cl)cc(C#N)c1 is above or exactly 6.
A. met

----------
Listed next: entries and their corresponding selectivity ratio.
# experiment-summary: Therapeutic index, ratio of CC50 for human C8166 cells to EC50 for wild type HIV1 3B infected in human C8166 cells
# Format: cell-based
# test-conditions: C8166 cells infected with wild type HIV1 3B, read-out: Ratio CC50/EC50

| smiles-data | result |
| --- | --- |
| Cc1cc(S(N)(=O)=O)ccc1NC(=O)COc1ccc(Cl)cc1NC(=O)c1cccc2ccccc12 | > 3500 |

Here's the next entry for you.
Q. Return reported selectivity ratio; argument: Cc1cc(S(N)(=O)=O)ccc1NC(=O)COc1ccc(Cl)cc1NC(=O)Cc1c(Cl)cccc1Cl
A. > 2

----------
# Tested on: C8166
# experiment-summary: Cytotoxicity against human C8166 cells assessed as decrease in cell viability by MTT assay
# Format: functional
With a cut-off of 80 µM, any CC50 strictly below it is called y; any CC50 meeting it or above is called n.

# example entries with known answers
| smiles-data | discrete-label |
| --- | --- |
| Cc1cc(S(N)(=O)=O)ccc1NC(=O)COc1ccc(Cl)cc1NC(=O)Cc1c(Cl)cccc1Cl | n |
| Cc1cc(S(N)(=O)=O)ccc1NC(=O)COc1ccc(Cl)cc1C(=O)c1cc(Cl)cc(C#N)c1 | n |
| Cc1cc(S(N)(=O)=O)ccc1NC(=O)COc1ccc(Cl)cc1NC(=O)c1cccc(F)c1 | n |
| Cc1cc(S(N)(=O)=O)ccc1NC(=O)COc1ccc(Cl)cc1NC(=O)c1ccccc1[N+](=O)[O-] | y |

Q. Is the reported CC50 for Cc1cc(S(N)(=O)=O)ccc1NC(=O)COc1ccc(Cl)cc1NC(=O)c1cc(Cl)cc(Cl)c1 strictly below 80 µM?
A. y

Q. Quick check: does Cc1cccc(C(=O)Nc2cc(Cl)ccc2OCC(=O)Nc2ccc(S(N)(=O)=O)cc2C)c1 have CC50 under 80 µM?
A. y

Q. Threshold test, CC50 < 80 µM: Cc1cc(S(N)(=O)=O)ccc1NC(=O)COc1ccc(Cl)cc1NC(=O)c1cccc2ccccc12
A. n
